biological target: human JAK2 (Homo sapiens); construct: human JAK2, amino acids 808-end; His6 (C); test: JAK2 kinase assay (Alphascreen, phosphorylation of biotinylated peptide substrate); details: 150pM JAK2 enzyme, 30 μM ATP, 60 minutes, room temperature; read-out: IC50 (JAK inhibitory activity)
Sequence (O60674 808-1132 limits assumed): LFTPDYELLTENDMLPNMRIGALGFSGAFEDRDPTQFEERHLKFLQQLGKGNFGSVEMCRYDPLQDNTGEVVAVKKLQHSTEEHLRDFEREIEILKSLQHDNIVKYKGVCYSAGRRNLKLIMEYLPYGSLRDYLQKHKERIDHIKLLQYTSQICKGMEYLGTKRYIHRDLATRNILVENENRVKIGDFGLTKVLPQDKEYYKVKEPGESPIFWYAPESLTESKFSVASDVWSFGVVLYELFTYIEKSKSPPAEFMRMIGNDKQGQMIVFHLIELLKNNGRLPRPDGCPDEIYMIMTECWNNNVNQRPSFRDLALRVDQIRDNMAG
quantity kind: IC50 (nM)
One number for each entry, in nM.

Exam item: human JAK2 (Homo sapiens) / IC50 / CCOc1cc(Nc2nc3c(cc2F)ncn3[C@@H](C)c2ccc(F)cn2)n[nH]1 : value?
Marked response: 11

---

molecular target: human Trk A kinase (Homo sapiens)
Sequence (P04629 442-796): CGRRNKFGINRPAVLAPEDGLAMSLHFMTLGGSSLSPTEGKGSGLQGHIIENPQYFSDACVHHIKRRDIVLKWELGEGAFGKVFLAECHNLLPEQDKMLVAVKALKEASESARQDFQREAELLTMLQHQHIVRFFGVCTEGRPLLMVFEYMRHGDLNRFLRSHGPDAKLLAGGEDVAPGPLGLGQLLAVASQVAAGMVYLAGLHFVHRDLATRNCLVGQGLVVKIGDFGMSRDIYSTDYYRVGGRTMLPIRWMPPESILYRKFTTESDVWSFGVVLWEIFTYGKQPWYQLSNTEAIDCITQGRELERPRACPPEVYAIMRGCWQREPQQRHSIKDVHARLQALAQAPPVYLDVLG
I'd appreciate it if you could supply IC50 values for the items below.
Answers are plain numbers, in nM.

Before answering, review these 5 worked examples.
substance smiles	system tested	quantity kind	endpoint result
CCOc1cc(Nc2nc3c(cc2F)ncn3[C@@H](CO)c2ccc(F)cn2)n[nH]1	human Trk A kinase (Homo sapiens)	IC50	3
COc1cc(Nc2nc3c(cc2F)ncn3[C@@H](C)c2ncc(F)cn2)n[nH]1	human Trk A kinase (Homo sapiens)	IC50	3
C[C@@H](c1ccc(F)cn1)n1cnc2cc(F)c(Nc3cc(C4CC4)[nH]n3)nc21	human Trk A kinase (Homo sapiens)	IC50	3
C[C@@H](c1ncc(F)cn1)n1cnc2cc(F)c(Nc3cc(C4CC4)[nH]n3)nc21	human Trk A kinase (Homo sapiens)	IC50	3
Cc1cc(Nc2nc3c(cc2F)nc(C)n3Cc2ncc(F)cc2F)n[nH]1	human Trk A kinase (Homo sapiens)	IC50	393

Answer for every listed entry: what is its IC50? The entries follow.
1. COc1cc(Nc2nc3c(cc2F)ncn3[C@@H](CO)c2ccc(F)cn2)n[nH]1
2. Cc1cc(Nc2nc3c(cc2F)[nH]c(=O)n3[C@@H](C)c2ncc(F)cn2)n[nH]1

Marked response:
1: 3; 2: 3300
